TARGET ENTITY: Ubiquitin carboxyl-terminal hydrolase 30 (Homo sapiens) (UniProt Q70CQ3)
Sequence (Q70CQ3 whole entry, looked up): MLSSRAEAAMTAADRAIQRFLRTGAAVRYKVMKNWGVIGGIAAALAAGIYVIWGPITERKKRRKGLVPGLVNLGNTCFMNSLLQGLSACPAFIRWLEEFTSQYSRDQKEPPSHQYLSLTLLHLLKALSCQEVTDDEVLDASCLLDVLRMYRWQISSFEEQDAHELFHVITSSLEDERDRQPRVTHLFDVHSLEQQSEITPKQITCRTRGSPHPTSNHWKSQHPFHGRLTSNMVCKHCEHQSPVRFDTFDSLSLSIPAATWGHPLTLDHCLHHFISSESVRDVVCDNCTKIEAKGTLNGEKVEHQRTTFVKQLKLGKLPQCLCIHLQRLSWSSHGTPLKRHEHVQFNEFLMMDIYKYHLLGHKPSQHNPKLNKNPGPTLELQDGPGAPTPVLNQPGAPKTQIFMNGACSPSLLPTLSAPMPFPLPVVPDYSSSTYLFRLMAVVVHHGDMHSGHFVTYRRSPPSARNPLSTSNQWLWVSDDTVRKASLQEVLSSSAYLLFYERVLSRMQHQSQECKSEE
PROTOCOL DESCRIPTION: inhibitors of ubiquitin-specific protease 30 deubiquitylating enzyme, concentration dependence, in vitro biochemical, validation of primary hits (AID 1645865)
APPLIED CONDITIONS: purified USP30, Ub-rhodamine cleavage, fluorescence, 2 h
The source made the active and inactive calls.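 Rule for the calls: active = maximal inhibition of the USP30 enzyme reaching 30% or more across the dose series; inactive = the rest.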
Reply using exactly one outcome from yes (active), no (inactive)

Q: In this assay, the call recorded for COc1ccc(-c2ccnc(-c3ccc(OCc4cccc(F)c4)cc3)n2)cc1 was what?
Result: yes

Q: In this assay, the call recorded for O=C(Nc1cc(F)c2nc(N3CCOCC3)ccc2c1)C1CC1 was what?
Result: no

Q: In this assay, the call recorded for CCCc1nc2sc3c(N(CC)CC)ncnc3c2c2c1CCC2 was what?
Result: no

Q: In this assay, the call recorded for Cc1c(C(=O)Nc2ccc(-c3nnc4n3CCCCC4)cc2)oc2c1ccc1ccccc12 was what?
Result: no

Q: In this assay, the call recorded for O=C(Nc1cc(F)c2nc(N3CCOCC3)ccc2c1)c1ccc(Br)o1 was what?
Result: no

Q: In this assay, the call recorded for Cc1nc(SCC(=O)Nc2cc(Cl)ccc2C)c2oc3ccccc3c2n1 was what?
Result: yes

Q: In this assay, the call recorded for C[C@@H](C(=O)NCc1ccc(F)cc1)N1C(=O)N2CCc3c([nH]c4ccccc34)[C@@]2(C)C1=O was what?
Result: yes

Q: In this assay, the call recorded for Cc1noc(C)c1S(=O)(=O)Nc1ccc(C(=O)Nc2ccc3c(c2)OCCO3)cc1 was what?
Result: no

Q: In this assay, the call recorded for O=C(CSc1nc2ccccc2n1S(=O)(=O)c1ccc(Br)cc1)Nc1ccc([N+](=O)[O-])cc1Cl was what?
Result: yes

Q: In this assay, the call recorded for Cc1ccc(-n2nc(C)c3c2NC(=O)CC3C(=O)c2cc3ccccc3o2)cc1C (centres undefined) was what?
Result: no

Q: In this assay, the call recorded for Cc1ccc(CNC(=O)Cn2cnc3c(cnn3-c3cccc(Cl)c3)c2=O)cc1 was what?
Result: yes

Q: In this assay, the call recorded for Cc1ccc(-n2c(-c3ccccc3)cn3c4c(=O)[nH]c(=O)n(C)c4nc23)cc1C was what?
Result: yes

Q: In this assay, the call recorded for CCn1cc(-c2nc(-c3ccccn3)no2)c(=O)c2cc(F)ccc21 was what?
Result: yes

Q: In this assay, the call recorded for O=C(Nc1cccc(F)c1)C1CCCN(S(=O)(=O)N2CCCCCC2)C1 (centres undefined) was what?
Result: yes
